Listed next: entries and their corresponding inhibition.
biological target: G-protein coupled receptor 55 (Homo sapiens) (UniProt Q9Y2T6); assay: GPR55 antagonists blocking LPI-driven arrestin recruitment, primary screen, imaging, U2OS, beta-arrestin-GFP, LPI agonist (AID 2013); settings: U2OS GPR55 beta-arrestin-GFP translocation imaging, LPI antagonism; at 10 µM; stronger effect = higher value;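 further: U2OS cells stably carrying GPR55 and arrestin-GFP stimulated by 5 µM LPI near EC80; imaged beta-arrestin-GFP aggregate spots per cell after agonist stimulation; plate controls were LPI-stimulated DMSO wells for no effect and DMSO wells without LPI for full effect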
Sequence (Q9Y2T6 whole entry, looked up): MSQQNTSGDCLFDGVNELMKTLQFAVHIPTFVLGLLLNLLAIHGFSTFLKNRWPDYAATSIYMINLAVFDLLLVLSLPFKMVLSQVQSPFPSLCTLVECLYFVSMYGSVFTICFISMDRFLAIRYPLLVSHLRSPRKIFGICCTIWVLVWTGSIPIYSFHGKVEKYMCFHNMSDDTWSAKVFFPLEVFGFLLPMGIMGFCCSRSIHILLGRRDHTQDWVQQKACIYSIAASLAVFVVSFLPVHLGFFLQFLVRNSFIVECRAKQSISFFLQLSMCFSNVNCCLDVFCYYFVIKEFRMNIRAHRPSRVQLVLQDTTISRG
In all, about 290,000 compounds went through this assay and about 370 (0.13%) were called active. This excerpt belongs to a sample that is enriched for actives. Potency and affinity values are given separately.
Give just the numeric value; % need not be written.

Query: Entry CCOC(=O)C(C)(C)N(Cc1ccccc1C)S(=O)(=O)c1ccc(Cl)c([N+](=O)[O-])c1 has what inhibition?
Result: 44

Query: Then CCOC(=O)C(C)(C)N(Cc1cccc(C)c1)S(=O)(=O)c1ccc(Cl)c([N+](=O)[O-])c1 ?
Result: 73.8

Query: Then CCOC(=O)C(C)(C)NS(=O)(=O)c1ccc(Cl)c([N+](=O)[O-])c1 ?
Result: 6.3

Query: Then CCOC(=O)C(C)(C)N(Cc1cccc(C)c1)S(=O)(=O)c1cccc([N+](=O)[O-])c1 ?
Result: 9.3

New cases:
Query: Entry CN(Cc1ccccc1)C(=O)CCC1CCN(C(=O)CC2=CCCCC2)CC1 has what inhibition?
Result: 0.7

----------
target: G-protein coupled receptor 55 (Homo sapiens); assay: GPR55 antagonists blocking LPI-driven arrestin recruitment, primary screen, imaging, U2OS, beta-arrestin-GFP, LPI agonist (AID 2013); settings: U2OS GPR55 beta-arrestin-GFP translocation imaging, LPI antagonism; at 10 µM; stronger effect = higher value;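 further: U2OS cells stably carrying GPR55 and arrestin-GFP stimulated by 5 µM LPI near EC80; imaged beta-arrestin-GFP aggregate spots per cell after agonist stimulation; plate controls were LPI-stimulated DMSO wells for no effect and DMSO wells without LPI for full effect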
Screen size: about 290,000 compounds; about 370 (0.13%) were called active. The entries come from a sample that favours actives as a whole. Potency and affinity values are given separately.
Endpoint Label: inhibition (%)
Give just the numeric value; % need not be written.

Query: Hi! What's the reported inhibition for COc1ccc(CNS(=O)(=O)c2ccc3c(c2)CCN3C(=O)C2CC2)cc1 on G-protein coupled receptor 55 (Homo sapiens)?
Result: 5.8

Query: Then CC(C)CC1(C)NC(=O)N(Cc2cc([N+](=O)[O-])cc3c2OCOC3)C1=O (stereo unspecified) ?
Result: -6.2

Query: Then [N-]=[N+]=N[C@@H](CCN1CC[C@H](NC(=O)OCc2ccccc2)CCC1=O)c1ccccc1 ?
Result: 6.9

Query: Then Clc1ccccc1OCCn1ccnc1 ?
Result: 1.9

New cases:
Query: Hi! What's the reported inhibition for CCc1nnc(NC(=O)c2ccc3c(c2)C(=O)N(CC(C)C)C3=O)s1 on G-protein coupled receptor 55 (Homo sapiens)?
Result: 3.7

Query: Then CCCCOc1ccc(-c2nnn(CC(=O)NCCc3c[nH]c4ccccc34)n2)cc1 ?
Result: 4

Query: Then CC1CN(C(=O)COC(=O)c2ccc(O)cc2)CC(C)O1 (stereo unspecified) ?
Result: 6.6

Query: Then O=C(N/N=C/c1ccc(OC(=O)c2ccccc2Cl)cc1)c1cc(O)cc(O)c1 ?
Result: 4.4

Query: Then COc1ccc(-c2c3c(=O)n(C)c(=O)n(C)c3cn2-c2cc(OC)ccc2OC)cc1 ?
Result: 11.5

Query: Then N/C(=N\O)c1ccccc1N1CCCCC1 ?
Result: -5

Query: Then CCCCNS(=O)(=O)c1cccc(S(=O)(=O)N2CCCC2)c1 ?
Result: 11.2

Reference source for all entries: PubChem BioAssay AID2013
